Biological target: NDM-1 (Klebsiella pneumoniae, UniProt C7C422)
Sequence (C7C422 29-270, looked up, species assumed): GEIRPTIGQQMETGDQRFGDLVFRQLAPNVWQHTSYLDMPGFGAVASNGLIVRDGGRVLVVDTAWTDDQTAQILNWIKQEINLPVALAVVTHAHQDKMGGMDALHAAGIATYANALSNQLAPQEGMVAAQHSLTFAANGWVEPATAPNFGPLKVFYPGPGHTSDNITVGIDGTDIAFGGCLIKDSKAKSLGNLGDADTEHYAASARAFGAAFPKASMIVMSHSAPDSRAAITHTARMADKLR
pKi: −log10 of the molar value.
quantity: pKi

>>> print(df.to_string())
                                   molecule                                    system  quantity        result
0  CS[C@H]1Cc2cccc(C(=O)O)c2OB1O [Compound 16]  NDM-1 (Klebsiella pneumoniae, UniProt C7C422)       pKi        < 7.00
1  Cn1cnnc1S[C@H]1Cc2cccc(C(=O)O)c2OB1O [Compound 15]  NDM-1 (Klebsiella pneumoniae, UniProt C7C422)       pKi        > 8.00
2  Nn1cnnc1S[C@H]1Cc2cccc(C(=O)O)c2OB1O [Compound 14]  NDM-1 (Klebsiella pneumoniae, UniProt C7C422)       pKi  7.00 to 8.00
3  CO[C@H]1Cc2ccc(F)c(C(=O)O)c2OB1O [Compound 19]  NDM-1 (Klebsiella pneumoniae, UniProt C7C422)       pKi        < 7.00
